- tgt: DRB1*0813 (DRA*0101/DRB1*0813) (Homo sapiens, UniProt P01903+P01911, A100R/A103L/A169T/F76Y/H45Y/I96L/K41T/L162R/M171V/P40S/Q125H/Q178H/Q39Y/Q99D/R218S/R42G/S66Y/V115G/W38E)
- Construct: DRA*01011-181LZFos; DRB1*08131-190LZJunBSP; made in house
- experiment_description: Direct LOCI peptide-MHC-II binding assay, DRB1*0813
Where no end group is shown, it is not given here.
Listed next: entries and their corresponding Kd.

**Q:** Quick check: Kd of PIVQNIQGQMVHQ [HIV] ?
**A:** > 5000 nM

**Q:** Reported Kd, sequence PLKAEIAQRLEDV [Influenza] : ____
**A:** > 5000 nM

**Q:** Consider the sequence YLFFYRKSV [TERT572Y] and give its measured Kd.
**A:** 95 nM

**Q:** What does the record list as Kd for IQMLKNGKKIPKVEMS [Murine β2m] ?
**A:** 73 nM

**Q:** For the sequence shown here, FLYGALLLA [MBP] , give the reported Kd.
**A:** > 5000 nM

**Q:** Which Kd is listed for GVTYEIDLTNKN [Mycobact leprea] ?
**A:** > 5000 nM

**Q:** Quick one: Kd of HHHHHHIEGRFAALWFRNHFVFGGGTK [6xH Lambda 2(315)] ?
**A:** 8 nM

**Q:** What does the data say about its Kd? Entry: YILLKKILSSRFNQM [Plasmodium Falciparum]
**A:** 4 nM

Recorded values, source paper PMC2690590.
